- Test system: NCI-H460 lung
Valid outcomes are listed here; reply with one: active, inactive

State the result this test recorded for O=S(=O)(CCCl)c1ccc(Cl)cc1 .
inactive

Same again, this time with COC(=O)C1(C)Cc2cc(OC(C)=O)c(OC(C)=O)cc2N1 (stereo not given)
inactive

Next molecule: CNC(=O)c1nn(C)c2c1C(C)(C)Cc1cnc(Nc3ccc(N4CCN(C)CC4)cc3)nc1-2
active

And C=C1C(=O)O[C@H]2[C@H]1CC/C(C=Nc1c(N)cc(C(F)(F)F)cc1Br)=C\CC[C@@]1(C)O[C@@H]21 ?
inactive

Same read-out for O=C(O)[C@@H](Cc1ccc2ccccc2c1)NC(=O)n1c2ccccc2c2ccccc21 ?
inactive

---

- Tested on: MDA-MB-435
- Procedure text: NCI tumour cell line growth inhibition, 48 h
# if value of TGI reaches 50 µM, tag label 1; if it stays below, tag label 0

Test whether the compound COc1cc(NCCCCCCCNC(C)C)c2nccc(C)c2c1 records TGI of 50 µM or higher.
label 0

Same thing, different compound: O=S(=O)(NCCCNc1nccc(-c2c(-c3ccc(F)cc3)nc3sccn23)n1)c1ccc2ccccc2c1
label 1

Cool, now CC(=O)/C(=C/c1ccccc1F)C(=O)c1ccccc1
label 1

What do you get for Cc1cc(I)cc(CN(C)CCCN2CCCC2)c1O ?
label 0

// same read-out, input: [O-]/[N+](=C\c1ccccc1OC(=S)S)c1ccc(Cl)cc1
label 0

Oc1[nH]c2ccccc2c1N=NC(=S)Nc1ccc(Cl)cc1 ?
label 1

Would you kindly repeat that for CCCCn1c(-c2ccc(C(=O)O/N=C(\N)c3ccc4c(c3)OCO4)cc2)nc(-c2ccccc2)c1-c1ccccc1 ?
label 0

Here is the next compound: COc1nc(C#CC(C)(C)C)nc(OC)n1
label 1

Another: CCOC(=O)C#Cc1ccccc1
label 0

Quick one: COc1cc2c(c(O)c1OC)C(=O)C(Cc1ccc(O)cc1)CO2 (stereo unspecified)
label 0

---

Please go through the items and note down their TGI.
- Tested on: T-47D breast
- Procedure text: NCI tumour cell line growth inhibition, 48 h

Tell me the measured TGI of Cc1ccc(NC(=O)c2cc(S(=O)(=O)N3C(=O)NC(=O)NS3(=O)=O)c(S)cc2Cl)cc1 , please.
81.3 µM

Another compound to look at: CNC(=O)CCCNC(=O)CCCC(=O)N(C)C
> 100 µM

Record: O=C(N/N=C/c1ccc(Br)cc1)N/N=C/c1ccc(Br)cc1
> 100 µM

Another compound: COc1ccc(CN2C3CC2CN(c2ccc(-c4cc(OCC(C)(C)O)cn5ncc(C#N)c45)cn2)C3)cn1
> 100 µM

Now this one: Cn1c2ccccc2c(=O)c2c(O)cc3c(c21)C=CC1(CCCCC1)O3
> 10 µM

Now consider COc1ccc(C(=O)c2ccc([As]=O)cc2)cc1 (configuration not stated) .
0.204 µM

What about CC(=O)/C(=C/c1ccccc1F)C(=O)c1ccccc1 ?
> 100 µM

Can you handle COc1c(O)c2c(=O)cc(OC)c3c4c(OC)cc(=O)c5c(O)c(OC)c6c(c(c1C(C(C)O)C6C(C)O)c23)c54 (configuration not stated) next?
8.33 µM

And then O=C(N/N=C/c1ccccc1O)c1ccccc1 , what is it?
> 100 µM

Moving on to C(=N\Nc1nnn(Cc2ccccc2)n1)/c1ccccc1
> 100 µM

Note, next up: CCCCn1c(-c2ccc([N+](=O)[O-])cc2)cs/c1=N/N=C1\C(=O)Nc2ccc(Br)cc21
35.1 µM

Now try COC(=O)C(/C(=N\O)C(=O)Nc1cccc(Cl)c1C)c1cnc2ccccc2n1 (configuration not stated) .
> 100 µM

Request: N#Cc1c(-c2ccccc2)cc(-c2ccc(Cl)cc2)[nH]c1=S
> 100 µM

Record: C1=C\SS/C=C\SS/1
> 100 µM

Follow-up entry: Cc1c2c(OCC3CCCCO3)nn(C)c(=O)c2c(C)n1-c1ccccc1 (configuration not stated)
70.3 µM

Now this one: C#CCN(Cc1ccc2nc(OC)c(OC)nc2c1)c1cc(OC)c(OC)c(OC)c1
> 100 µM

Note, next up: COCCOCCOC1=CC(=O)c2c(O)ccc(O)c2C1=O
3.48 µM

Repeat with COc1ccc(CC2COc3cc(O)cc(O)c3C2=O)cc1O (configuration not stated)
> 100 µM

// repeat for O=c1[nH]c(Nc2cccc(CO)c2)nc2nc[nH]c12 and report
> 100 µM

Proceed to CCOP(=O)(/C=C\n1ccc(N)nc1=O)OCC
> 100 µM

Thanks! And Cc1ccc(/C=C2\Cc3c(C)cc(C)cc3C2=O)c(C(=O)O)c1 ?
> 100 µM

Same question, CN1/C(=C\C=C\C2=[N+](C)c3ccccc3C2(C)C)C(C)(C)c2ccccc21 this time
1.27 µM

---

Would you kindly list GI50 for each of these compounds?
- Test system: HCT-15 colon
- Procedure text: NCI tumour cell line growth inhibition, 48 h

If you can, please state the reported GI50 value of O=C1OCC2=C1C(c1ccccc1)c1cc3c(cc1N2CCO)OCO3 (stereo not given) .
2.96 µM

Lookup COC(=O)C1(C)Cc2cc(OC(C)=O)c(OC(C)=O)cc2N1 (stereo not given)
2.64 µM

Query CN(C)C(=O)O[C@H]1CN[C@H](C#Cc2cc3ncnc(Nc4ccc(OCc5cccc(F)c5)c(Cl)c4)c3s2)C1 next
14.2 µM

Param item: c1ccc2[nH]c(-c3ccc(Nc4nc(N5CCCCC5)nc(N5CCOCC5)n4)cc3)nc2c1
1.88 µM

# repeat for CCCCCCCCCCCCCCCC[N+]1(C)CCOCC1
2.55 µM

---

- System: OVCAR-5 ovarian
- Procedure text: NCI tumour cell line growth inhibition, 48 h
Test readout: TGI

Query (compound): CCON1CC(C(=O)OC)=C(O)C1=O ; field requested: TGI
> 100 µM

Can you check O=C(/C=C/c1ccccc1)c1ccc(NCc2nc3ccccc3[nH]2)cc1 next?
23.2 µM

Now try C=C1C(=O)O[C@H]2[C@H]1CC/C(C=Nc1c(N)cc(C(F)(F)F)cc1Br)=C\CC[C@@]1(C)O[C@@H]21 .
3.75 µM

Now consider Cc1c2ccccc2cc2ccc3oc([N+](=O)[O-])cc3c12 and answer again.
> 100 µM

Then CN(C)C(=O)O[C@H]1CN[C@H](C#Cc2cc3ncnc(Nc4ccc(OCc5cccc(F)c5)c(Cl)c4)c3s2)C1 ?
> 25 µM

Try C[C@H]1SC(c2ccc(Cl)cc2Cl)N(NC(=O)c2ccncc2)C1=O (stereo partly drawn) next.
> 100 µM

Can you handle COc1cc2c(c(O)c1OC)C(=O)C(Cc1ccc(O)cc1)CO2 (stereo not drawn) next?
> 100 µM

Check Cc1c2c(OCC3CCCCO3)nn(C)c(=O)c2c(C)n1-c1ccccc1 (stereo not drawn) too.
35.9 µM

Moving on to O=c1[nH]c(=O)n(C2CC(O)C(CO)O2)cc1OCc1ccccc1 (stereo not drawn)
> 100 µM

Next: OC(c1cc2ccc(C(F)(F)F)cc2c2cc(C(F)(F)F)ccc12)C1CCCCN1 (stereo not drawn)
3.18 µM

Now the compound CCOC(=O)c1cn2c(n1)sc1cc(Cl)cc(Cl)c12
> 100 µM

Similarly, c1c2c(cc(-n3nnc4c3CCCCCC4)c1-n1nnc3c1CCCCCC3)CCCCCC2 ?
30 µM

Another compound to check: S=c1cc(-c2ccc3c(c2)OCO3)s[nH]1
> 100 µM

Then this compound: Cc1cc(I)cc(CN(C)CCCN2CCCC2)c1O
> 94.7 µM

Also need O=C1CCCCN1CCCCC#Cc1cccc(C#Cc2cccnc2)c1 , thanks.
41.7 µM

Please answer likewise for C=C1c2nc3ccccc3n2C=C(c2ccc(Cl)cc2)N1c1ccc(OC)cc1
35 µM

Query C1=C\SS/C=C\SS/1 next
> 100 µM

COc1cc2c(cc1OC)-c1cc3ccccc3c(=O)n1CC2 , same question.
> 100 µM

Another compound: Cc1ccc(/C=C2\Cc3c(C)cc(C)cc3C2=O)c(C(=O)O)c1
> 100 µM

Could you do the same for CC(=O)c1ccc2c(c1)CC1(C2)Cc2ccccc2C1=O (stereo not drawn) , please?
> 100 µM

For COc1ccc2[nH]c3c(c2c1)[C@H](C)C[C@@H]1C(=O)N(c2ccccc2)C(=O)[C@H]31 then?
> 100 µM

Then what about the compound C=CC(OCC)(OCC)OCC ?
> 100 µM

What do we get for O=S(=O)(CCCl)c1ccc(Cl)cc1 ?
14.2 µM

---

- Test system: MDA-MB-231 breast
- Procedure text: NCI tumour cell line growth inhibition, 48 h; in the data active = GI50 below about 0.43 µM; inactive = the rest
Outcomes you can answer with include only these: 1 (yes) for active, 0 (no) for inactive

Recorded test call requested for Cc1ccc(NC(=O)c2cc(S(=O)(=O)N3C(=O)NC(=O)NS3(=O)=O)c(S)cc2Cl)cc1
0 (no)

Now this one: N#Cc1ccc(NC(=O)C(CC(=O)OCc2ccccc2)NC(=O)OCc2ccccc2)cc1 (configuration not stated)
0 (no)

Please do the same for O=S(=O)(CCCl)c1ccc(Cl)cc1 as well.
0 (no)

Another molecule to check: O=C1OCC2=C1C(c1ccccc1)c1cc3c(cc1N2CCO)OCO3 (configuration not stated)
0 (no)

Item: COc1cc(NCCCCCCCNC(C)C)c2nccc(C)c2c1
0 (no)

Note, next up: c1ccc2[nH]c(-c3ccc(Nc4nc(N5CCCCC5)nc(N5CCOCC5)n4)cc3)nc2c1
0 (no)

Item: CN(C)C(=O)O[C@H]1CN[C@H](C#Cc2cc3ncnc(Nc4ccc(OCc5cccc(F)c5)c(Cl)c4)c3s2)C1
0 (no)

What about this molecule? Oc1ccccc1-c1nn(CNc2ccccc2Cl)c(=S)o1
0 (no)

Then CN1/C(=C\C=C\C2=[N+](C)c3ccccc3C2(C)C)C(C)(C)c2ccccc21 ?
1 (yes)

Same thing, different molecule: Cn1cc(C2=C(c3cn(C4CCN(Cc5ccccn5)CC4)c4ccccc34)C(=O)NC2=O)c2ccccc21
0 (no)

Do the same for O=c1oc2ccc(I)cc2c(=O)n1-c1ccc(Cl)cc1F please
0 (no)

Same question, O=C(O)[C@@H](Cc1ccc2ccccc2c1)NC(=O)n1c2ccccc2c2ccccc21 this time
0 (no)
